target: P. falciparum apicoplast DNA polymerase (Pf-apPOL) (Plasmodium falciparum); assay: Fluorescence-based high-throughput DNA polymerase assay (molecular beacon), primary screen and dose-response; assay type: biochemical; details: DRC-1; 10'; concentration 5
Sequence (Q8ILY1 entry or part of it): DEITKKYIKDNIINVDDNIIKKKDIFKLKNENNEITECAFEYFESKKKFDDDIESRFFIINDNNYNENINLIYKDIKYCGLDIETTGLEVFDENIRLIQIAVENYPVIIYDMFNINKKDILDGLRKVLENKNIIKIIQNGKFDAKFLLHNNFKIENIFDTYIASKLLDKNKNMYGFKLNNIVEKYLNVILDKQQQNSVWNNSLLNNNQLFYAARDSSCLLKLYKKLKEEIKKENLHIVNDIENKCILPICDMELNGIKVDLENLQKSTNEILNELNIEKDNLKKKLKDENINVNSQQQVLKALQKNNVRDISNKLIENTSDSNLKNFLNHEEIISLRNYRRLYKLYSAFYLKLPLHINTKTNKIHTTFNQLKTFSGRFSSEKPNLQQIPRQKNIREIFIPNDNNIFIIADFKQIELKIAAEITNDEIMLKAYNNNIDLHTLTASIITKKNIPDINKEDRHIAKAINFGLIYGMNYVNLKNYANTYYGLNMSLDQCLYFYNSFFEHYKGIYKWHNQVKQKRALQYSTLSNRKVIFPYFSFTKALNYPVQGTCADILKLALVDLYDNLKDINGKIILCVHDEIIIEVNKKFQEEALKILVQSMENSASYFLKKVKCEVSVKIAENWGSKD
Kind request: treat 10% as inclusive, so % inhibition Apo pol 10' at 10% or higher is class 1, anything lower is class 0.

For orientation, consider the following solved cases.
compound	group_label
O=c1cc(-c2ccccc2Cl)oc2c(NS(=O)(=O)c3cc(Cl)cc(Cl)c3O)ccc(O)c12 [KU0104277]	class 0
CCOC(=O)C(NCc1ccco1)(NC(=O)c1ccco1)C(F)(F)F (centres unmarked) [KU0276119]	class 0
O=C(Nc1nnc(-c2ccno2)o1)c1ccc2ncsc2c1 [Molecule 62, O=C(c1ccc2c(c1)scn2)Nc1nnc(o1)c1ccno1]	class 1

State whether the measured % inhibition Apo pol 10' reaches 10%, counting equality as reaching it, for Cc1ccc(-n2nnc(C(=O)O)c2-c2ccccn2)c(F)c1 [Molecule 54, Cc1ccc(c(c1)F)n1nnc(c1c1ccccn1)C(=O)O]
class 1

Textbook exercise: given the entry CC1=NNC(=O)C1Oc1ccc(Cl)cc1Cl (centres unmarked) [KU0265591] , state whether its % inhibition Apo pol 10' is greater than or equal to 10%.
class 1

Textbook exercise: given the entry Cc1ncc(CSc2nc(C(C)(C)C)cs2)c(CO)c1O [KU0264007] , state whether its % inhibition Apo pol 10' is greater than or equal to 10%.
class 0
